system_tested: T1, ENAH EVH1 domain with Arg47 mutated to Ala (human, UniProt Q03173 1-111 (mouse entry))
T1 construct: also called ENAH R47A; ENAH EVH1 R47A
method_notes: BLI, steady state; SUMO-peptide immobilised, EVH1 monomer in solution
observation_type: Kd (µM)
Give the number; µM is assumed, so skip it.

In: Would you kindly share the measured Kd for NHSL1 Duplicated peptide (biotinylated (BAP tag), Engineered variant, tested as a SUMO fusion) peptide: MAGGLNDIFEAQKIEWHEDTGGSSHHHHHHGSGSGSDSEVNQEAKPEVKPEVKPETHINLKVSDGSSEIFFKIKKTTPLRRLMEAFAKRQGKEMDSLTFLYDGIEIQADQTPEDLDMEDNDIIEAHREQIGGSGSGADRSPFLPPPPPVTDCSQGSPLPHSPVPVTDCSQGSPLPHSPVFPPPPPEAL ?
Out: 70

In: Would you kindly share the measured Kd for NHSL1 FP4 1 peptide (biotinylated (BAP tag), Truncation of the NHSL1 36mer that keeps the first FP4 motif, tested as a SUMO fusion) peptide: MAGGLNDIFEAQKIEWHEDTGGSSHHHHHHGSGSGSDSEVNQEAKPEVKPEVKPETHINLKVSDGSSEIFFKIKKTTPLRRLMEAFAKRQGKEMDSLTFLYDGIEIQADQTPEDLDMEDNDIIEAHREQIGGSGSGADRSPFLPPPPPVTDCSQGSPLPHSPV ?
Out: 99.1

In: Would you kindly share the measured Kd for LPP 36mer peptide (biotinylated (BAP tag), Tested as a BAP-6xHis-SUMO-peptide fusion in BLI and ITC) peptide: MAGGLNDIFEAQKIEWHEDTGGSSHHHHHHGSGSGSDSEVNQEAKPEVKPEVKPETHINLKVSDGSSEIFFKIKKTTPLRRLMEAFAKRQGKEMDSLTFLYDGIEIQADQTPEDLDMEDNDIIEAHREQIGGSGSGKQPGGEGDFLPPPPPPLDDSSALPSISGNFPPPPPL ?
Out: 61.9
